# Experiment Notes: inhibitors of E-selectin induction by TNFa, primary screen, imaging, HUVEC, immunofluorescence, MLSMR starter and 10KST1 sets (AID 487);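 further: 100% = median nuclei count of all wells on the same plate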
# Test Context: HUVEC TNFalpha-induced E-selectin immunofluorescence imaging, at 2 µM; measured here: cell number, toxicity
Recorded Metric: nuclei count (%)
A number alone suffices; assume %.

Below: 5 compounds and their reported nuclei count.
compound="COc1cccc(/C(O)=C2/C(=O)C(=O)N(CCCN(C)C)C2c2cccc(Cl)c2)c1 (stereo unspecified)" measure_unit=% obs_value=182
compound="CCN(CC)CCCC1(CN)OCCc2ccccc21 (stereo unspecified)" measure_unit=% obs_value=104
compound="CCC(NC(C)C)C(O)c1ccc(O)c2[nH]c(=O)ccc12 (stereo unspecified)" measure_unit=% obs_value=142
compound="Cc1cccc(N(CC(O)CN(C)C)S(=O)(=O)c2ccccc2)c1 (stereo unspecified)" measure_unit=% obs_value=177
compound=COc1cccc(-c2nnc3sc(-c4ccco4)nn23)c1 measure_unit=% obs_value=105

Recorded nuclei count (compound "CN(C)/C=C1\N=C(c2ccc(Cl)cc2Cl)OC1=O" ): 120

Each recorded value in this set is attributed to PubChem BioAssay.
